Recorded values, source the supplement of paper PMC10567573.

B1: TAF7L (parent)
chain: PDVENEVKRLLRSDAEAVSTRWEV

# Variants of: B1
# experiment_description: protein stability index of a GFP-peptide fusion (GPS, HEK-293T) (PSI 1-6); higher = more stable;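 also: lentivirally expressed fusions sorted by FACS into six bins by GFP to DsRed ratio, PSI derived from sequencing read proportions per bin multiplied by bin number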
# measurement_context: c terminus: a fixed tail appended
Label scheme for protein stability index: lower than 3 is -1, 3 and above is 1.

For orientation, consider the following solved cases.
E4V: -1
A15H: 1
T20D: -1
E4Y: 1
D2M: 1

Exam item: Reported protein stability index reaches at least 3 for "W22T" ?
Marked response: 1

Exam item: Reported protein stability index reaches at least 3 for "S19G" ?
Marked response: 1

Exam item: Reported protein stability index reaches at least 3 for "R9Q" ?
Marked response: 1

Exam item: Reported protein stability index reaches at least 3 for "V3T" ?
Marked response: 1

Exam item: Reported protein stability index reaches at least 3 for "R21H" ?
Marked response: 1

Exam item: Reported protein stability index reaches at least 3 for "D2Q" ?
Marked response: -1

Exam item: Reported protein stability index reaches at least 3 for "V24P" ?
Marked response: 1

Exam item: Reported protein stability index reaches at least 3 for "R12F" ?
Marked response: -1
